testName: Pharmacokinetics in humans, MRTX1133 formulation, oral, single and multiple doses
Format: in vivo
testParameters: human, plasma, po, 400 mg, multiple oral doses of 400 mg BID, fasted; geometric mean of subjects; read-out: AUC0-12, Geo Mean
measurementName: AUC(0-t) (ng·h/mL)
Field format: number, assumed ng·h/mL, no unit text.

Identify measured AUC(0-t) associated with C#Cc1c(F)ccc2cc(O)cc(-c3ncc4c(N5C[C@H]6CC[C@@H](C5)N6)nc(OC[C@@]56CCCN5C[C@H](F)C6)nc4c3F)c12
410

###

testName: Pharmacokinetics in humans, MRTX1133 formulation, oral, single and multiple doses
Assay type: in vivo
testParameters: human, plasma, po, 800 mg, multiple oral doses of 800 mg BID, fasted; 8 h; Mean of subjects; read-out: Plasma concentration
measurementName: concentration at 8 h

Let me know recorded concentration at 8 h for C#Cc1c(F)ccc2cc(O)cc(-c3ncc4c(N5C[C@H]6CC[C@@H](C5)N6)nc(OC[C@@]56CCCN5C[C@H](F)C6)nc4c3F)c12 , thanks.
56.2 ng/mL

###

testName: Pharmacokinetics in humans, MRTX1133 formulation, oral, single and multiple doses
Assay type: in vivo
testParameters: human, plasma, po, 400 mg, single oral dose of 400 mg with a low-fat meal; 12 h; mean of subjects; read-out: Plasma concentration, Mean
measurementName: concentration at 12 h (ng/mL)
Please give a number only; it is taken to be in ng/mL.

Answer with the recorded concentration at 12 h of C#Cc1c(F)ccc2cc(O)cc(-c3ncc4c(N5C[C@H]6CC[C@@H](C5)N6)nc(OC[C@@]56CCCN5C[C@H](F)C6)nc4c3F)c12 only.
11.3

###

testName: Pharmacokinetics in humans, MRTX1133 formulation, oral, single and multiple doses
Assay type: in vivo
testParameters: human, plasma, po, 400 mg, single oral dose of 400 mg with a low-fat meal; 96 h; mean of subjects; read-out: Plasma concentration, Mean
measurementName: concentration at 96 h (ng/mL)
Unit ng/mL implied. Number only.

Please report concentration at 96 h for the following compound: C#Cc1c(F)ccc2cc(O)cc(-c3ncc4c(N5C[C@H]6CC[C@@H](C5)N6)nc(OC[C@@]56CCCN5C[C@H](F)C6)nc4c3F)c12 [MRTX1133]
1.12

###

testName: Pharmacokinetics in humans, MRTX1133 formulation, oral, single and multiple doses
Format: in vivo
testParameters: human, plasma, po, 400 mg, single oral dose of 400 mg, fasted; 1.5 h; mean of subjects; read-out: Plasma concentration, Mean
measurementName: concentration at 1.5 h (ng/mL)
Answer with a number only, understood to be in ng/mL.

State its concentration at 1.5 h: C#Cc1c(F)ccc2cc(O)cc(-c3ncc4c(N5C[C@H]6CC[C@@H](C5)N6)nc(OC[C@@]56CCCN5C[C@H](F)C6)nc4c3F)c12
48.9

###

testName: Pharmacokinetics in humans, MRTX1133 formulation, oral, single and multiple doses
Assay type: in vivo
testParameters: human, plasma, po, 400 mg, single oral dose of 400 mg, fasted; 24 h; individual subjects; read-out: Plasma concentration
measurementName: concentration at 24 h
Give the number first and the unit second.

Fill in concentration at 24 h for record C#Cc1c(F)ccc2cc(O)cc(-c3ncc4c(N5C[C@H]6CC[C@@H](C5)N6)nc(OC[C@@]56CCCN5C[C@H](F)C6)nc4c3F)c12 [MRTX1133]
3.75 ng/mL

###

testName: Pharmacokinetics in humans, MRTX1133 formulation, oral, single and multiple doses
Assay type: in vivo
testParameters: human, plasma, po, 800 mg, single oral dose of 800 mg, fasted; 0 h; individual subjects; read-out: Plasma concentration
measurementName: concentration at 0 h (ng/mL)
Just the number please, in ng/mL, no unit attached.

Given the compound C#Cc1c(F)ccc2cc(O)cc(-c3ncc4c(N5C[C@H]6CC[C@@H](C5)N6)nc(OC[C@@]56CCCN5C[C@H](F)C6)nc4c3F)c12 [MRTX1133] , write its reported concentration at 0 h.
0

###

testName: Pharmacokinetics in humans, MRTX1133 formulation, oral, single and multiple doses
Format: in vivo
testParameters: human, plasma, po, 400 mg, single oral dose of 400 mg with a low-fat meal; 3 h; mean of subjects
measurementName: concentration at 3 h (ng/mL)
Supply the numeric figure in ng/mL, leaving out any unit text.

Please look at this compound and report its concentration at 3 h: C#Cc1c(F)ccc2cc(O)cc(-c3ncc4c(N5C[C@H]6CC[C@@H](C5)N6)nc(OC[C@@]56CCCN5C[C@H](F)C6)nc4c3F)c12 [MRTX1133]
43.7

###

testName: Pharmacokinetics in humans, MRTX1133 formulation, oral, single and multiple doses
Format: in vivo
testParameters: human, plasma, po, 200 mg, multiple oral doses of 200 mg BID, fasted; geometric mean of subjects; read-out: AUC0-last, Geo Mean
measurementName: AUC(0-t) (µg·h/mL)
Give just the numeric value; µg·h/mL need not be written.

Tell me its AUC(0-t) given C#Cc1c(F)ccc2cc(O)cc(-c3ncc4c(N5C[C@H]6CC[C@@H](C5)N6)nc(OC[C@@]56CCCN5C[C@H](F)C6)nc4c3F)c12 as the entry.
0.0752

###

testName: Pharmacokinetics in humans, MRTX1133 formulation, oral, single and multiple doses
Type: in vivo
testParameters: human, plasma, po, 400 mg, multiple oral doses of 400 mg BID, fasted; 12 h; mean of subjects; read-out: Plasma concentration, Mean
measurementName: concentration at 12 h (ng/mL)
A number alone suffices; assume ng/mL.

Give reported concentration at 12 h value for C#Cc1c(F)ccc2cc(O)cc(-c3ncc4c(N5C[C@H]6CC[C@@H](C5)N6)nc(OC[C@@]56CCCN5C[C@H](F)C6)nc4c3F)c12
27.8

###

testName: Pharmacokinetics in humans, MRTX1133 formulation, oral, single and multiple doses
Assay type: in vivo
testParameters: human, plasma, po, 400 mg, single oral dose of 400 mg with a low-fat meal; 24 h; individual subjects; read-out: Plasma concentration
measurementName: concentration at 24 h (ng/mL)
Write the value in ng/mL as a bare number.

Dear colleague, please send me the reported concentration at 24 h for C#Cc1c(F)ccc2cc(O)cc(-c3ncc4c(N5C[C@H]6CC[C@@H](C5)N6)nc(OC[C@@]56CCCN5C[C@H](F)C6)nc4c3F)c12 when you can.
7.59

###

testName: Pharmacokinetics in humans, MRTX1133 formulation, oral, single and multiple doses
Assay type: in vivo
testParameters: human, plasma, po, 400 mg, multiple oral doses of 400 mg BID with a low-fat meal; 5 h; mean of subjects
measurementName: concentration at 5 h (ng/mL)
Please respond with the number in ng/mL and leave the unit unwritten.

Dear colleague, please send me the reported concentration at 5 h for C#Cc1c(F)ccc2cc(O)cc(-c3ncc4c(N5C[C@H]6CC[C@@H](C5)N6)nc(OC[C@@]56CCCN5C[C@H](F)C6)nc4c3F)c12 [MRTX1133] when you can.
39.8

###

testName: Pharmacokinetics in humans, MRTX1133 formulation, oral, single and multiple doses
Type: in vivo
testParameters: human, plasma, po, 400 mg, multiple oral doses of 400 mg BID with a low-fat meal; geometric mean of subjects; read-out: AUC0-12, Geo Mean
measurementName: AUC(0-t) (ng·h/mL)
Reply with just the number (in ng·h/mL).

For C#Cc1c(F)ccc2cc(O)cc(-c3ncc4c(N5C[C@H]6CC[C@@H](C5)N6)nc(OC[C@@]56CCCN5C[C@H](F)C6)nc4c3F)c12 , write its AUC(0-t).
310

###

testName: Pharmacokinetics in humans, MRTX1133 formulation, oral, single and multiple doses
Type: in vivo
testParameters: human, plasma, po, 400 mg, single oral dose of 400 mg with a low-fat meal; median of subjects (footnote b); read-out: Tmax, Median
Description: The pharmacokinetics [PK] of the MRTX1133 formulation after oral administration has been evaluated in 25 subjects across 3 escalating dose frequencies under fasting conditions (200 mg twice daily [BID], 400 mg BID, and 800 mg BID), as well as evaluation of 400 mg BID when administered with a low-fat meal (i.e., under fed conditions). The mean (+standard deviation) single-dose and multiple-dose pharmacokinetic profiles of the evaluated doses are presented in FIG. 9 and FIG. 10, respectively. […]
measurementName: Tmax (h)
The reply should be a number in h, with the unit left off.

Return Tmax for the following compound: C#Cc1c(F)ccc2cc(O)cc(-c3ncc4c(N5C[C@H]6CC[C@@H](C5)N6)nc(OC[C@@]56CCCN5C[C@H](F)C6)nc4c3F)c12
4

###

testName: Pharmacokinetics in humans, MRTX1133 formulation, oral, single and multiple doses
Assay type: in vivo
testParameters: human, plasma, po, 800 mg, single oral dose of 800 mg, fasted; 0.5 h; mean of subjects; read-out: Plasma concentration, Mean
measurementName: concentration at 0.5 h (µg/mL)
Expressed in µg/mL, but write only the number.

Tell me measured concentration at 0.5 h for C#Cc1c(F)ccc2cc(O)cc(-c3ncc4c(N5C[C@H]6CC[C@@H](C5)N6)nc(OC[C@@]56CCCN5C[C@H](F)C6)nc4c3F)c12 please.
0.235
